- runDescription: Plasma pharmacokinetics of CPT-11, SN-38 and SN-38G after i.v. CPT-11 in control and SXD-pre-treated rats
- measurementContext: SD, rat, plasma, iv, 20 mg/kg, Cmax, rat plasma, CPT-11 20 mg/kg i.v., SXD-treated, n = 6, Mean ± SEM
measuredAttribute: Cmax (ng/mL)
Just the number in ng/mL, nothing appended.

According to the records, this molecule CCc1c2c(nc3ccc(O)cc13)-c1cc3c(c(=O)n1C2)COC(=O)[C@]3(O)CC [SN-38, 7-ethyl-10-hydroxycamptothecin] displays Cmax of 180

---

- runDescription: Plasma pharmacokinetics of CPT-11, SN-38 and SN-38G after i.v. CPT-11 in control and SXD-pre-treated rats
- measurementContext: SD, rat, plasma, iv, 20 mg/kg, C0, rat plasma, CPT-11 20 mg/kg i.v., SXD-treated, n = 6, Mean ± SEM
Counter-ions that a name gives are not always drawn.
measuredAttribute: C0 (ng/mL)
Just the number in ng/mL, nothing appended.

According to the records, this compound CCc1c2c(nc3ccc(OC(=O)N4CCC(N5CCCCC5)CC4)cc13)-c1cc3c(c(=O)n1C2)COC(=O)[C@]3(O)CC [CPT-11, irinotecan hydrochloride, reference compound] displays C0 of 4690
